ASSAY OVERVIEW: Caco-2 cell permeability
RUN PARAMETERS: human
Lab note: compare Papp B→A with 20 ×10⁻⁶ cm/s, writing 1.0 if less and 0.0 if equal or more.

Below, 3 compounds whose answers are already recorded.
| COMPOUND | CLASSIFICATION |
| --- | --- |
| CO[C@H]1CCN(c2ccc3nccc(C(=O)NCC(=O)N4CSC[C@H]4C#N)c3c2)C1 | 0.0 |
| N#C[C@@H]1CSCN1C(=O)CNC(=O)c1ccnc2ccc(N3C[C@@H](F)[C@@H](F)C3)cc12 | 0.0 |
| N#C[C@@H]1CSCN1C(=O)CNC(=O)c1ccnc2ccc(N3CCO[C@H](C(F)(F)F)C3)cc12 | 0.0 |

Regarding CN1CCC(F)(c2ccc3nccc(C(=O)NCC(=O)N4CSC[C@H]4C#N)c3c2)CC1 , kindly confirm whether its Papp B→A is beneath 20 ×10⁻⁶ cm/s.
1.0

Regarding CC1(C)COC12CN(c1ccc3nccc(C(=O)NCC(=O)N4CSC[C@H]4C#N)c3c1)C2 , kindly confirm whether its Papp B→A is beneath 20 ×10⁻⁶ cm/s.
0.0

Regarding Cn1nccc1-c1ccc2nccc(C(=O)NCC(=O)N3CSC[C@H]3C#N)c2c1 , kindly confirm whether its Papp B→A is beneath 20 ×10⁻⁶ cm/s.
0.0

Regarding CC(=O)N1CC2(C1)CN(c1ccc3nccc(C(=O)NCC(=O)N4CSC[C@H]4C#N)c3c1)C2 , kindly confirm whether its Papp B→A is beneath 20 ×10⁻⁶ cm/s.
1.0
